Settings: Crystal; DTA
Numbers after ± are expanded uncertainties.
Could you please report measured Normal melting temperature for the items listed next?
Answer format: value, then unit.

[[record]]
molecule = "c1ccc2ccccc2c1 [naphthalene]"
value_reported = "80.10 ± 0.53 °C"


// input: 3 molecules below; output: Normal melting temperature for each
1. Clc1ccc(Cl)cc1 [1,4-dichlorobenzene]
2. Clc1cccc(Cl)c1 [1,3-dichlorobenzene]
3. Clc1ccccc1Cl [1,2-dichlorobenzene]

// result
1: 53.00 ± 0.53 °C; 2: -24.90 ± 0.53 °C; 3: -17.30 ± 0.53 °C

* * *

Test: Molar enthalpy of transition or fusion
Details: Crystal; DSC
Exercise: for every item that follows, state its recorded Molar enthalpy of transition or fusion.
Give bare numbers, in kJ/mol.

[[record]]
smiles_entry = "c1ccc2ccccc2c1"
test_readout = "Molar enthalpy of transition or fusion"
value_reported = 19


I have 3 molecules here; please give me Molar enthalpy of transition or fusion for each one.
1. Clc1ccc(Cl)cc1
2. Clc1cccc(Cl)c1
3. Clc1ccccc1Cl

// result
18.2
12.6
12.4
